target: CDK13 (Homo sapiens); experiment: CDK13 kinase inhibitory activity assay (33P-ATP filter binding); assay type: biochemical
Sequence (Q14004 whole entry, species assumed): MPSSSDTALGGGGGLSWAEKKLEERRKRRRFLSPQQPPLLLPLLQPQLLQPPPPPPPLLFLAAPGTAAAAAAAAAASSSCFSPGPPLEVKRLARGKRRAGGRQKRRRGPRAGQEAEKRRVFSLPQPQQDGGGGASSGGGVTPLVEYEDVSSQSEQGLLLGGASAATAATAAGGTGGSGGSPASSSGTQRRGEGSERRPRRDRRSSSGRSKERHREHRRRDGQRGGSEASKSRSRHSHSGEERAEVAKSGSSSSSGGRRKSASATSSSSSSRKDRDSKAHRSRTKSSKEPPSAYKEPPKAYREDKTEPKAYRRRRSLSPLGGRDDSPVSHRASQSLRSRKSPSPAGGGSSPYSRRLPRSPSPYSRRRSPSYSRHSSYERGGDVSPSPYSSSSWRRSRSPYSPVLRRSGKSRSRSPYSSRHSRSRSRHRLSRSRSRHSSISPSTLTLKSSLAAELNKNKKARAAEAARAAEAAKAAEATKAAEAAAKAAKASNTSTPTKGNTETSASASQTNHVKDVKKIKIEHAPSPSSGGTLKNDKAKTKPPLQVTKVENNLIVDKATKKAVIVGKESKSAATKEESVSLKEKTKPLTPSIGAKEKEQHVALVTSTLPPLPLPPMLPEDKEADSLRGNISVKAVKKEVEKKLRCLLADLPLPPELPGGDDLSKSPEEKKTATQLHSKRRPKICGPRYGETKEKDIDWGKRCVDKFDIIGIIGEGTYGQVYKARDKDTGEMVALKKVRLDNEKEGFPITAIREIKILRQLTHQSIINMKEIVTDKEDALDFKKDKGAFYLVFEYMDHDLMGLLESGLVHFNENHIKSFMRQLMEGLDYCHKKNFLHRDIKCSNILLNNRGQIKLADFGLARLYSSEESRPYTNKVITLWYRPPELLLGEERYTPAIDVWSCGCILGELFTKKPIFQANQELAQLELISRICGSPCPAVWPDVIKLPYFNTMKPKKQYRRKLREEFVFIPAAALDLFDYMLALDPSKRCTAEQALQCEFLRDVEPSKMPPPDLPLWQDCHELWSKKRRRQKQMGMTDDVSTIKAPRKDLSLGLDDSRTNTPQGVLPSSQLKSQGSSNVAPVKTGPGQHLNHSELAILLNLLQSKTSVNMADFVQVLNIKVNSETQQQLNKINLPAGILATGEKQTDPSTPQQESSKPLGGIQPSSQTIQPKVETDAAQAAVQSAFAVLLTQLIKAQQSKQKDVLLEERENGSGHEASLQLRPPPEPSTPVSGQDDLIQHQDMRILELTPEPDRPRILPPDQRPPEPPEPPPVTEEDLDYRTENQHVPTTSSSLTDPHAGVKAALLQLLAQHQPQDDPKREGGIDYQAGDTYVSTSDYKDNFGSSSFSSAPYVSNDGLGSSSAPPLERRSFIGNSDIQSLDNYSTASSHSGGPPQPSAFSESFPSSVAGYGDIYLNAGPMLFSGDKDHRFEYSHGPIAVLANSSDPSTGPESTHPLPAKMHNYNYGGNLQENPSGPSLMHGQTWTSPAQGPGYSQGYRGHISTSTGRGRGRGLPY
Sequence (O75909 whole entry partner, species assumed): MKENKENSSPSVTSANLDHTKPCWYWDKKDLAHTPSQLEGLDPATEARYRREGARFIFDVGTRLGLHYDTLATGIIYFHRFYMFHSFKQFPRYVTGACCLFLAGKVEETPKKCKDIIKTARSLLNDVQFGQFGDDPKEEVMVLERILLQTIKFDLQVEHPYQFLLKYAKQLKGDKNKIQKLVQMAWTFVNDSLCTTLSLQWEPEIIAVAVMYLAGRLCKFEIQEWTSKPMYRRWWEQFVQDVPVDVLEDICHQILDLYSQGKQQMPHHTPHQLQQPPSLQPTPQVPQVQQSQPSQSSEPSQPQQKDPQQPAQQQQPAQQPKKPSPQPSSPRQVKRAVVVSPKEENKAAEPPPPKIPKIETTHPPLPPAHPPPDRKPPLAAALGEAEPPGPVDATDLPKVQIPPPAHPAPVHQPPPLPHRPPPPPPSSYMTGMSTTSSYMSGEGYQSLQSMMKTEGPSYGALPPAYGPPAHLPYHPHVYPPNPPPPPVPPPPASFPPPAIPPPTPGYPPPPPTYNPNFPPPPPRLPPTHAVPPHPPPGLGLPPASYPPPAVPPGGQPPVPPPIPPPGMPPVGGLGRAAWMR
test_readout: IC50

These solved cases illustrate the format of a correct answer.
molecule | target_of_assay | IC50
FC(F)(F)c1cnc2c(NCc3cn4cccnc4n3)cc(N3CCOCC3)nn12 [Example 83] | CDK13 (Homo sapiens) | < 0.1 µM
O=C(CO)C1CCN(c2cc(NCc3nc4cc(Cl)c(Cl)cc4[nH]3)c3ncc(C(F)(F)F)n3n2)CC1 [Example 114] | CDK13 (Homo sapiens) | < 0.1 µM
C#Cc1cnc2c(NCc3nc4ccc(F)c(F)c4[nH]3)cc(-c3cnc(N)nc3)nn12 [Example 22] | CDK13 (Homo sapiens) | < 0.1 µM
FC(F)(F)c1cnc2c(NCc3cn4ccccc4n3)cc(N3CCOCC3)nn12 [Example 82] | CDK13 (Homo sapiens) | < 0.1 µM
Fc1ccc2nc(CNc3cc(N4CCN(C5CC5)CC4)nn4c(C(F)(F)F)cnc34)[nH]c2c1F [Example 28] | CDK13 (Homo sapiens) | 0.1 to 0.5 µM
O=C(CO)NC1CCN(c2cc(NCc3nc4cc(Cl)c(Cl)cc4[nH]3)c3ncc(C(F)(F)F)n3n2)CC1 [Example 115] | CDK13 (Homo sapiens) | < 0.1 µM

Item under review: OC1CCN(c2cc(NCc3nc4ccc(F)c(F)c4[nH]3)c3ncc(C(F)(F)F)n3n2)CC1 [Example 19] . Reported IC50? < 0.1 µM

What value of measured IC50 is listed for FC(F)(F)c1cnc2c(NCc3cn4ncccc4n3)cc(N3CCOCC3)nn12 [Example 85] ? < 0.1 µM

IC50 for Cc1cc(C)n2cc(CNc3cc(N4CCOCC4)nn4c(C(F)(F)F)cnc34)nc2n1 [Example 88] ? < 0.1 µM

Could you share which IC50 value was measured for FC(F)(F)c1cnc2c(NCc3cc4ncccc4[nH]3)cc(N3CCOCC3)nn12 [Example 87] ? < 0.1 µM

I would be grateful if you could share the reported IC50 for FC(F)(F)c1cnc2c(NCc3cc4ncccn4n3)cc(N3CCOCC3)nn12 [Example 89] . < 0.1 µM

Value source: patent EP4813991A1
